Listed next: entries and their corresponding GI50.
# Test system: OVCAR-3
# Assay Remarks: NCI tumour cell line growth inhibition, 48 h
Calls of active or inactive are those of the source. No stated cut-off is given here; in the data, active = GI50 up to about 1.1 µM and inactive = higher.
Assay Readout: GI50

{"columns": ["Compound", "Assay Readout", "Result"],
 "data": [
  ["COC(=O)[C@]12C3=C(O)C(=O)C[C@H]1OC[C@H]2C=CC3", "GI50", "> 100 µM (inactive)"],
  ["O=c1c2ccccc2nc(Cc2nc(-c3ccc(Cl)cc3)cs2)n1-c1ccc(Cl)cc1", "GI50", "94.2 µM (inactive)"],
  ["CO[C@H]1c2cccc3cccc(c23)[C@@H]1n1[nH]c(=O)n(C(C)(C)C)c1=O", "GI50", "> 100 µM (inactive)"],
  ["[N-]=[N+]=NC(CI)c1cn([C@H]2C[C@H](O)[C@@H](CO)O2)c(=O)[nH]c1=O (stereo partly specified)", "GI50", "> 100 µM (inactive)"],
  ["Cc1ccc(/C=C2\\CCCC\\C2=N\\O)cc1", "GI50", "> 100 µM (inactive)"],
  ["CCN(c1n[n+]2c(-c3ccccc3)csc2s1)c1n[n+]2c(-c3ccccc3)csc2s1", "GI50", "71.8 µM (inactive)"],
  ["Oc1c(C2=NNC(c3ccc(Cl)cc3Cl)C2)ccc2ccccc12 (stereo unspecified)", "GI50", "20.1 µM (inactive)"],
  ["O=C1NC(=O)C(c2c[nH]c3ccccc23)=C1c1cnc[nH]1", "GI50", "82 µM (inactive)"],
  ["CC(=O)OC1CC2C(=O)CC1(C)C2(C)C (stereo unspecified)", "GI50", "> 100 µM (inactive)"],
  ["Nc1ccc(-c2nc3cc(F)ccc3s2)cc1", "GI50", "> 90.2 µM (inactive)"],
  ["COc1ccc(/C=C(\\C2=NC(=O)CS2)c2nc3ccccc3[nH]2)cc1", "GI50", "22 µM (inactive)"]
]}

====

# System: NCI-H460
# Assay Remarks: NCI tumour cell line growth inhibition, 48 h
Calls of active or inactive are those of the source. Cut-off read from the data, not from the text of the source: active = GI50 up to about 1.1 µM and inactive = higher.
Outcomes: true (1) (active), false (0) (inactive)

{"columns": ["Molecule", "Discrete Label"],
 "data": [
  ["CC1(C)CC(O)CC(C)(C)N1O [TEMPOL HYDROXYLAMINE]", "false (0)"],
  ["O=C(c1cccc2ccccc12)C1S(=O)(=O)OCCOS1(=O)=O", "false (0)"],
  ["O=C(Nc1ccn(C2CC(O)C(COC(c3ccccc3)(c3ccccc3)c3ccccc3)O2)c(=O)n1)c1ccccc1 (configuration not stated)", "false (0)"],
  ["COc1ccc(-c2cc(O)c3cc4c(cc3n2)OCO4)c(OC)c1", "false (0)"],
  ["COc1ccc2c(c1)C(N)=C(c1ccccc1OC)C2=O", "false (0)"],
  ["Nc1cc(O)c2cc(/N=N/c3ccc(/N=N/c4ccc(/N=N/c5ccc6cc(S(=O)(=O)O)cc(S(=O)(=O)O)c6c5)c5ccccc45)c4cc(S(=O)(=O)O)ccc34)c(S(=O)(=O)O)cc2c1", "false (0)"],
  ["COC(=O)C1=C(O)c2cc3c(cc2[C@H](c2cc(OC)c(OC)c(OC)c2)C1)OCO3", "false (0)"],
  ["O=c1c2ccccc2nc(Cc2nc(-c3ccc(Cl)cc3)cs2)n1-c1ccc(Cl)cc1", "false (0)"],
  ["Cc1ccc(/C=C2\\Cc3c(C)cc(C)cc3C2=O)c(C(=O)O)c1", "false (0)"],
  ["O=C(O)/C=C/c1c[nH]c(=O)[nH]c1=O", "false (0)"],
  ["COC(=O)C1=C(O)c2cc3c(cc2[C@H](c2cc(OC)c(OC)c(OC)c2)C1C(=O)OC)OCO3 (some centres not stated)", "false (0)"],
  ["COC(=O)C1=C(C)N(NC(N)=O)C(C)(O)C12CCOC2=O (configuration not stated)", "false (0)"],
  ["CNC(=S)NNc1ncnc2c1ncn2-c1ccc(C)cc1", "false (0)"],
  ["Cc1c(N2C(=O)/C(=C/c3ccc(Cl)cc3)N=C2c2ccccc2)c(=O)n(-c2ccccc2)n1C", "false (0)"],
  ["NS(=O)(=O)c1ccc(NCc2cnc3ccccc3c2)cc1", "false (0)"],
  ["O=[N+]([O-])/C(C(Cl)=C(Cl)Cl)=C(\\NCc1ccccc1)Sc1ccccc1", "false (0)"],
  ["CCCCCCCCCCCCN1[C@H]2CCC[C@H]2C(O)[C@@H]2CCC[C@@H]21 (some centres not stated)", "false (0)"],
  ["CC(=O)NC1C(OCc2ccccc2)OC(COC(=O)CCCCCCCCCCNC(=O)CCNc2ccc([N+](=O)[O-])c3[nH]c4ccc(O)cc4c(=O)c23)C(O)C1OC(C)C(=O)N[C@H](C(=O)N[C@H](CCC(=O)O)C(N)=O)C(C)C (some centres not stated)", "false (0)"],
  ["O=c1[nH]nc(Cc2ccc(Cl)cc2)n1/N=C/c1cccs1", "false (0)"],
  ["C/C(=N\\NC(=O)N/N=C(\\C)c1ccccn1)c1ccccn1", "true (1)"],
  ["Fc1cccc(C2ON=C(c3ccccc3)N2C23CC4CC(CC(C4)C2)C3)c1 (configuration not stated)", "false (0)"],
  ["CC1NOC(=O)C1/N=N/c1ccccc1Br (configuration not stated)", "false (0)"],
  ["O=C1c2ccccc2C(=O)c2c1sc1nc3ccccc3n21", "false (0)"],
  ["COc1cc2c(c(OC)c1OC)-c1ccc(OC)c(=O)cc1C(NC(=O)COc1ccccc1)CC2 (configuration not stated)", "true (1)"],
  ["COC(=O)c1cc2c3c(cc(N(C)C)c2[nH]1)N(C(=O)c1cc2cc(OC)c(OC)c(OC)c2[nH]1)CC3CCl (configuration not stated)", "true (1)"],
  ["COC(C(O)c1ccc2c(c1)OCO2)P(=O)(c1ccccc1)c1ccccc1 (configuration not stated)", "false (0)"],
  ["CCOc1ccccc1NC(=O)C1=C(C)NC(C)=C(C(=O)Nc2ccccc2OCC)C1c1cccc([N+](=O)[O-])c1", "false (0)"],
  ["C=C1C(=O)O[C@H]2[C@H]3O[C@@H](C[C@@H]12)[C@](C)(O)CCCC(C)=CCC[C@H]3C", "false (0)"],
  ["CC1(C)CC(=O)C(=CN2C(=O)CNC2=S)C(=O)C1", "false (0)"],
  ["COc1ccc2nc3cc(Cl)ccc3c(NCCNCCCNC(=O)c3cc(-c4ccccc4)nc4ccccc34)c2c1", "false (0)"],
  ["O=C(O)c1ccccc1CC1Cc2ccc3c(c2C1=O)CCC3 (configuration not stated)", "false (0)"],
  ["Oc1ccc(-c2c3c(nc4c2CCc2ccc(Br)cc2-4)-c2cc(Br)ccc2CC3)cc1", "false (0)"],
  ["Cc1c(C(=O)/C=C/c2ccccc2Cl)[n+]([O-])c2ccccc2[n+]1[O-]", "false (0)"],
  ["CCN(CC)CSc1nc2ccccc2[nH]1", "false (0)"],
  ["COc1ccccc1NC(=O)C1=C(C)NC(C)=C(C(=O)Nc2ccccc2OC)C1c1ccccc1F", "false (0)"],
  ["[O-][S+]1c2ccc(Cl)cc2CC(SSC2Cc3cc(Cl)ccc3[S+]([O-])c3ccccc32)c2ccccc21 (configuration not stated)", "false (0)"],
  ["COc1ccc(/C=C2/SC(c3ccccc3)N(NC(=O)CCCCCCCCC(=O)NN3C(=O)/C(=C\\c4ccc(OC)c(OC)c4)SC3c3ccccc3)C2=O)cc1OC (configuration not stated)", "false (0)"]
]}
